- tgt: Sodium-dependent serotonin transporter (Homo sapiens, UniProt P31645)
- Sequence (P31645 whole entry): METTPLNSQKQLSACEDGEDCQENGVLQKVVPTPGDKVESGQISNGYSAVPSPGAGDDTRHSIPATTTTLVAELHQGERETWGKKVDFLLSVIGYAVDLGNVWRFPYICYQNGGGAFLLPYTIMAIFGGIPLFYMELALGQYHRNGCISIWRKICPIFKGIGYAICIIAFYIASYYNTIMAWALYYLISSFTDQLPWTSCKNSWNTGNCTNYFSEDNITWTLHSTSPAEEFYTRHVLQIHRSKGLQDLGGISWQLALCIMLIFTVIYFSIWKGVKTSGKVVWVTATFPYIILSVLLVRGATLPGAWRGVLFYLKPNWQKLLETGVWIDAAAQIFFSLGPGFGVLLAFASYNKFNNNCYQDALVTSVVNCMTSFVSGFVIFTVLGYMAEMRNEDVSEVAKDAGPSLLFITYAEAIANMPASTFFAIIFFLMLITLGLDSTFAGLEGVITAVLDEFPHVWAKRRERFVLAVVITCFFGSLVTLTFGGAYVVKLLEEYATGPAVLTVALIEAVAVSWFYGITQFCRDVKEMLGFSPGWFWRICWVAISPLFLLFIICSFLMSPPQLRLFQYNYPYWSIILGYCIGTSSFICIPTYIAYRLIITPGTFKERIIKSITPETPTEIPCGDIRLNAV
- methodSummary: Inhibition of [3H]citalopram uptake at human 5HTT expressed in HEK293 cells by SPA
- Type: cell-based
measure: pKi
To interpret pKi, take it as minus log10 of a concentration measured in moles per litre.

Use these answered entries as a reference point.
{"molecularString": "O=CN(Cc1ccccc1-c1ccccc1)[C@H]1CCNC1", "assayResult": 6.06}
{"molecularString": "CCOC(=O)N(Cc1ccccc1C(F)(F)F)[C@H]1CCNC1", "assayResult": 6.37}
{"molecularString": "COC(=O)N(Cc1ccccc1-c1ccccc1)[C@H]1CCNC1", "assayResult": 5.35}
{"molecularString": "CC(C)C(=O)N(Cc1ccccc1C(C)C)[C@H]1CCNC1", "assayResult": 6.26}
{"molecularString": "c1ccc(-c2ccccc2CN[C@H]2CCNC2)cc1", "assayResult": 5.97}

Find the measured pKi: item `CC(=O)N(Cc1ccccc1-c1ccccc1)[C@H]1CCNC1` , target or system Sodium-dependent serotonin transporter (Homo sapiens, UniProt P31645).
5.24

Find the measured pKi: item `CCOC(=O)N(Cc1ccccc1C(C)C)[C@H]1CCNC1` , target or system Sodium-dependent serotonin transporter (Homo sapiens, UniProt P31645).
6.12

Find the measured pKi: item `CS(=O)(=O)N(Cc1ccccc1-c1ccccc1)[C@H]1CCNC1` , target or system Sodium-dependent serotonin transporter (Homo sapiens, UniProt P31645).
5.39

Find the measured pKi: item `CCOC(=O)N(Cc1ccccc1-c1ccccc1)[C@H]1CCNC1` , target or system Sodium-dependent serotonin transporter (Homo sapiens, UniProt P31645).
5.95

Find the measured pKi: item `CCS(=O)(=O)N(Cc1ccccc1-c1ccccc1)[C@H]1CCNC1` , target or system Sodium-dependent serotonin transporter (Homo sapiens, UniProt P31645).
5.25

Find the measured pKi: item `CSc1ccccc1CN(C(=O)C(C)C)[C@H]1CCNC1` , target or system Sodium-dependent serotonin transporter (Homo sapiens, UniProt P31645).
7.30

Find the measured pKi: item `CN(C)S(=O)(=O)N(Cc1ccccc1-c1ccccc1)[C@H]1CCNC1` , target or system Sodium-dependent serotonin transporter (Homo sapiens, UniProt P31645).
5.48

Find the measured pKi: item `CC(C)S(=O)(=O)N(Cc1ccccc1-c1ccccc1)[C@H]1CCNC1` , target or system Sodium-dependent serotonin transporter (Homo sapiens, UniProt P31645).
5.33

Find the measured pKi: item `CS(=O)(=O)N(Cc1ccccc1C(F)(F)F)[C@H]1CCNC1` , target or system Sodium-dependent serotonin transporter (Homo sapiens, UniProt P31645).
5.54

Find the measured pKi: item `O=S(=O)(N(Cc1ccccc1-c1ccccc1)[C@H]1CCNC1)C(F)(F)F` , target or system Sodium-dependent serotonin transporter (Homo sapiens, UniProt P31645).
5.28

Find the measured pKi: item `CC(C)C(=O)N(Cc1ccccc1C(F)(F)F)[C@H]1CCNC1` , target or system Sodium-dependent serotonin transporter (Homo sapiens, UniProt P31645).
6.88

Find the measured pKi: item `CCCC(=O)N(Cc1ccccc1-c1ccccc1)[C@H]1CCNC1` , target or system Sodium-dependent serotonin transporter (Homo sapiens, UniProt P31645).
6.14

Find the measured pKi: item `CC(C)C(=O)N(Cc1ccccc1-c1ccccc1)[C@H]1CCNC1` , target or system Sodium-dependent serotonin transporter (Homo sapiens, UniProt P31645).
6.02

###

Entries and their measured pIC50 follow.
- tgt: Cytochrome P450 1A2 (Homo sapiens, UniProt P05177)
- Sequence (P05177 whole entry): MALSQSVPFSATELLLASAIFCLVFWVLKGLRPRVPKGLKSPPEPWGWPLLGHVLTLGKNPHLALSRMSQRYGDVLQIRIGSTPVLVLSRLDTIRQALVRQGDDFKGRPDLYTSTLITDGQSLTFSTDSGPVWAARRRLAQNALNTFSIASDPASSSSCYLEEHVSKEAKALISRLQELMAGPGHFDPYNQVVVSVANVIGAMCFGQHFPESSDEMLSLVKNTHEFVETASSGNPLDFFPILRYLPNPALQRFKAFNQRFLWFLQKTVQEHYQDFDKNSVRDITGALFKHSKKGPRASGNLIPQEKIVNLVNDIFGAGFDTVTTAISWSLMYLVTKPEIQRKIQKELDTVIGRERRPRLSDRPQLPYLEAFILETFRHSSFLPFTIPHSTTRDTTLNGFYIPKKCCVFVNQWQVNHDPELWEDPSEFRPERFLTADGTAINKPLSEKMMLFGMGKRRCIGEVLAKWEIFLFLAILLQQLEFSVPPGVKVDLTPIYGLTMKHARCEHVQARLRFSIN
- methodSummary: Inhibition of CYP1A2
- Format: ADME
pIC50: −log10 of the molar value.

{"molecularString": "CC(C)C(=O)N(Cc1ccccc1-c1ccccc1)[C@H]1CCNC1", "pIC50": "< 5.52"}

# context switch: different compound, same pIC50
// query pIC50 value for entry `CCOC(=O)N(Cc1ccccc1-c1ccccc1)[C@H]1CCNC1`
< 5.52

###

- methodSummary: Ratio of permeability from basolateral to apical side over apical to basolateral side of MDCK cells expressing MDR1 gene
- measurementConditions: dog
measure: efflux ratio
Keep it simple and answer with nothing but the number.

Use these answered entries as a reference point.
{"molecularString": "CN(C)S(=O)(=O)N(Cc1ccccc1-c1ccccc1)[C@H]1CCNC1", "efflux ratio": 4}
{"molecularString": "O=C(N1CCCC1)N(Cc1ccccc1-c1ccccc1)[C@H]1CCNC1", "efflux ratio": 26}
{"molecularString": "CC(C)C(=O)N(Cc1ccccc1-c1ccccc1)[C@H]1CCNC1", "efflux ratio": 6.1}

# context switch: different compound, same efflux ratio
// query efflux ratio value for entry `CS(=O)(=O)N(Cc1ccccc1-c1ccccc1)[C@H]1CCNC1`
5.1

###

- tgt: Sodium-dependent noradrenaline transporter (Homo sapiens, UniProt P23975)
- Sequence (P23975 whole entry): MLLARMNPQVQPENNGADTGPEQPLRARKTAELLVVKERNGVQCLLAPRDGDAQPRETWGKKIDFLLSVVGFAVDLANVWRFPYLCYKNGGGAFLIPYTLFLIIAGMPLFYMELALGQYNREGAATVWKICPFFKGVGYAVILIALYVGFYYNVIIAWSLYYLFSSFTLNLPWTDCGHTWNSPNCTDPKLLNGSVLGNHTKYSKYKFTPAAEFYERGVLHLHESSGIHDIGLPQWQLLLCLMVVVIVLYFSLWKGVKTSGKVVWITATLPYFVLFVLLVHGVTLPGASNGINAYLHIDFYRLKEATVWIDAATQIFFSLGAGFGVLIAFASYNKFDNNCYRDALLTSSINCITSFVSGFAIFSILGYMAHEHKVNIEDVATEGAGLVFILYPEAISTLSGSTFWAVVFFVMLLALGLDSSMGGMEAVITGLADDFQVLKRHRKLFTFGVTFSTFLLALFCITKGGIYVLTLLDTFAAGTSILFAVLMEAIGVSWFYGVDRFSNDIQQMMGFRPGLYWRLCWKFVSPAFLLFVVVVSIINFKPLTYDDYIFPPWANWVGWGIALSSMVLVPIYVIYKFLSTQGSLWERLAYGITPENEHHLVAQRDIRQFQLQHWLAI
- methodSummary: Inhibition of [3H]nisoxetine reuptake at human NET expressed in HEK293 cells by SPA
measure: pKi
To interpret pKi, take it as minus log10 of a concentration measured in moles per litre.

Use these answered entries as a reference point.
{"molecularString": "CC(C)C(=O)N(Cc1ccccc1C(F)(F)F)[C@H]1CCNC1", "tgt": "Sodium-dependent noradrenaline transporter (Homo sapiens, UniProt P23975)", "measure": "pKi", "assayResult": 7.20}
{"molecularString": "CCS(=O)(=O)N(Cc1ccccc1-c1ccccc1)[C@H]1CCN(C)C1", "tgt": "Sodium-dependent noradrenaline transporter (Homo sapiens, UniProt P23975)", "measure": "pKi", "assayResult": 6.33}

// query pKi value for entry `CCOC(=O)N(Cc1ccccc1-c1ccccc1)[C@@H]1CCNC1`
7.80

// query pKi value for entry `CSc1ccccc1CN([C@H]1CCNC1)S(C)(=O)=O`
7.07

###

- tgt: Cytochrome P450 2D6 (Homo sapiens, UniProt P10635)
- Sequence (P10635 whole entry): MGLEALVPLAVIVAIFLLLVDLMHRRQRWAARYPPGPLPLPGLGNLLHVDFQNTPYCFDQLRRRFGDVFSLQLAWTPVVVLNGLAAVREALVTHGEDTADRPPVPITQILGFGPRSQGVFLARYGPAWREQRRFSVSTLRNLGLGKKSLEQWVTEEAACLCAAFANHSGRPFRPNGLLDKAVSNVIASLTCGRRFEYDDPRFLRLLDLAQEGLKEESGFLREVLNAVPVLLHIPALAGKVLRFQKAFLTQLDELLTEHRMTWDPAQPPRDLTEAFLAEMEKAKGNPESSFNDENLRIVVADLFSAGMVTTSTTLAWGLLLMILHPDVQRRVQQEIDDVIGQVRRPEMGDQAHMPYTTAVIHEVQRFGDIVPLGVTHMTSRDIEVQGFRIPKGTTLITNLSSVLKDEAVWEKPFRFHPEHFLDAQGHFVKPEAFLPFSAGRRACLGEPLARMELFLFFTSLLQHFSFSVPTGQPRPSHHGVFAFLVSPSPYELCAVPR
Lab note: cut-off is 1000 nM. Strictly less in IC50 is label 1. Exactly 1000 nM or more is label 0.

Solved entries:
{"molecularString": "CC(C)C(=O)N(Cc1cccc(Cl)c1Cl)[C@H]1CCNC1", "labelValue": "label 0"}
{"molecularString": "CCOC(=O)N(Cc1ccccc1-c1ccccc1)[C@H]1CCNC1", "labelValue": "label 0"}
{"molecularString": "CN(C)S(=O)(=O)N(Cc1ccccc1-c1ccccc1)[C@H]1CCNC1", "labelValue": "label 1"}
{"molecularString": "CCOC(=O)N(Cc1ccccc1Oc1ccccc1)[C@H]1CCNC1", "labelValue": "label 1"}
{"molecularString": "COC(=O)N(Cc1ccccc1-c1ccccc1)[C@H]1CCNC1", "labelValue": "label 0"}

Please find the next compound below.
Threshold test, IC50 < 1000 nM: `CCS(=O)(=O)N(Cc1ccccc1-c1ccccc1)[C@H]1CCNC1`
label 0

###

- tgt: Sodium-dependent dopamine transporter (Homo sapiens, UniProt Q01959)
- Sequence (Q01959 whole entry): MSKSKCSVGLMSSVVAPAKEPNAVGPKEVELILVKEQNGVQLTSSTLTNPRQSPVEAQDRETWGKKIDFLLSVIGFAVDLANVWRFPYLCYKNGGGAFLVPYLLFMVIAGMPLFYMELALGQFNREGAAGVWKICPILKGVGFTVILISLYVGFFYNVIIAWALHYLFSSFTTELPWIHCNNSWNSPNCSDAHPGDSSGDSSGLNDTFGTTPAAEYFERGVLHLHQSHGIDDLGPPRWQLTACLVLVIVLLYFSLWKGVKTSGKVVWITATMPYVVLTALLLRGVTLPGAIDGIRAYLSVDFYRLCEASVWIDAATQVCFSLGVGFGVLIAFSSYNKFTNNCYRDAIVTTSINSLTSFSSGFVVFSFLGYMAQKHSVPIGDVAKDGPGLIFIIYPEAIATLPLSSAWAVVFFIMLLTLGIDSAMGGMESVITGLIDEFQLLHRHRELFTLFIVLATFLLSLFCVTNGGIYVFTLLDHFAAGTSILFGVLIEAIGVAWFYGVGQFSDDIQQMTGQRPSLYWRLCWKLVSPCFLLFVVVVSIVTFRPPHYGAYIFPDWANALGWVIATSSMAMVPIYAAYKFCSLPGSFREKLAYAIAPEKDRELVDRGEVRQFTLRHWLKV
measure: IC50
Please format your answer as a value with the unit trailing.

Find the measured IC50: item `CC(C)C(=O)N(Cc1cccc(Cl)c1Cl)[C@H]1CCNC1` , target or system Sodium-dependent dopamine transporter (Homo sapiens, UniProt Q01959).
1250 nM

###

Entries and their measured pKi follow.
- tgt: Sodium-dependent noradrenaline transporter (Homo sapiens, UniProt P23975)
- methodSummary: Inhibition of [3H]nisoxetine reuptake at human NET expressed in HEK293 cells by SPA
To interpret pKi, take it as minus log10 of a concentration measured in moles per litre.

{"molecularString": "CN1CC[C@H](N(Cc2ccccc2-c2ccccc2)S(C)(=O)=O)C1", "assayResult": 6.13}
{"molecularString": "CC(=O)N(Cc1ccccc1-c1ccccc1)[C@H]1CCNC1", "assayResult": 6.91}
{"molecularString": "CC(C)C(=O)N(Cc1ccccc1C1CC1)[C@H]1CCNC1", "assayResult": 7.13}

// query pKi value for entry `CCC(=O)N(Cc1ccccc1-c1ccccc1)[C@H]1CCNC1`
7.52

// query pKi value for entry `CS(=O)(=O)N(Cc1ccccc1-c1ccccc1)[C@@H]1CCNC1`
7.54

// query pKi value for entry `COC(=O)N(Cc1ccccc1-c1ccccc1)[C@H]1CCNC1`
7.74

// query pKi value for entry `CCCC(=O)N(Cc1ccccc1-c1ccccc1)[C@H]1CCNC1`
7.60

###

- tgt: UniProtKB P11712
measure: IC50

Find the measured IC50: item `CC(C)C(=O)N(Cc1ccccc1-c1ccccc1)[C@H]1CCNC1` , target or system UniProtKB P11712.
> 3 µM

###

- tgt: CYP2C9 (Homo sapiens)
- Sequence (P11712 whole entry): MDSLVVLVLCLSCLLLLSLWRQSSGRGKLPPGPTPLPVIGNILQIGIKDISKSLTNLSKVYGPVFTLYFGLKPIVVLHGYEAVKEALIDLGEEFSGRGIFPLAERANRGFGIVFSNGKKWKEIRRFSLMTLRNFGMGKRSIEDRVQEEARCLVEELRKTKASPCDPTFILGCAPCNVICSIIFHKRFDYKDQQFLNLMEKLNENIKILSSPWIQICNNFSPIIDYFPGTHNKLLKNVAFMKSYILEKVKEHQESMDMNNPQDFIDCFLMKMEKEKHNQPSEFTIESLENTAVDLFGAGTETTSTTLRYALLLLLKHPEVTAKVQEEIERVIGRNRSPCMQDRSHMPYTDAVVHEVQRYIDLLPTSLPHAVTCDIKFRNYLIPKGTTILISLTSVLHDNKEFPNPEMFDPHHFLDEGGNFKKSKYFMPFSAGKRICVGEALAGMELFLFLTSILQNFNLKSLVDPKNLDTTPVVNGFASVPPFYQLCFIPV
- methodSummary: Inhibition of CYP2C9 at 3 uM
- Format: ADME
measure: inhibition at 3 µM

// query inhibition at 3 µM value for entry `CC(C)C(=O)N(Cc1cccc(Cl)c1Cl)[C@H]1CCNC1`
< 40%

###

- tgt: CYP3A4 (Homo sapiens, UniProt P08684)
- Sequence (P08684 whole entry): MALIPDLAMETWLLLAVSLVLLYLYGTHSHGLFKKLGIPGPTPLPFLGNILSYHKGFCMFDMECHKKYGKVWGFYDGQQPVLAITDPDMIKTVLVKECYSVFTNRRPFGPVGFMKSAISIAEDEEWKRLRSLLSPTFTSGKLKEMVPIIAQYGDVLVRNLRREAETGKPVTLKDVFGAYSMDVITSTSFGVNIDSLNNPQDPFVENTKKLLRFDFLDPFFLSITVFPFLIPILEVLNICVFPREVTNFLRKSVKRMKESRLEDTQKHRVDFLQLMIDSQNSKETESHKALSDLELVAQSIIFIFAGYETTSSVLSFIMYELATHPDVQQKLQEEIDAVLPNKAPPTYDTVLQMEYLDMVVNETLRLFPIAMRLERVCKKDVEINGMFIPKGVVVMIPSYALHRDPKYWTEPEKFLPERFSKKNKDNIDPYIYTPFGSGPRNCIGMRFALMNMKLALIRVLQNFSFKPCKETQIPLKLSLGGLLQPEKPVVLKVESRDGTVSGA
- methodSummary: Inhibition of CYP3A4 at 3 uM
- Format: ADME
measure: inhibition at 3 µM

// query inhibition at 3 µM value for entry `CC(C)C(=O)N(Cc1cccc(Cl)c1Cl)[C@H]1CCNC1`
< 40%
